Record type: pIC50 measurement. Applies to: neuraminidase (NA) (Influenza A virus)
Would you please state pIC50, meaning minus log10 of the concentration in mol/L, as a bare number?

{"columns": ["compound", "pIC50"],
 "data": [
  ["COc1cc(O)cc2c1-c1ccc(O)cc1CC2 [Compound 1]", 4.14],
  ["COc1ccc2c(ccc3c(-c4c(O)c(OC)cc5c4CCc4cc(O)cc(OC)c4-5)c(O)cc(OC)c32)c1 [Compound 3]", 4.77],
  ["COc1cc(O)c2c(ccc3c(OC)c(O)ccc32)c1-c1c(OC)cc(O)c2c1ccc1c(OC)c(O)ccc12 [Compound 4]", 4.66]
]}

Query :: Find pIC50 (neuraminidase (NA) (Influenza A virus)) for the entry COc1cc(O)c2c(ccc3cc(O)ccc32)c1-c1c(OC)cc(O)c2c1ccc1cc(O)ccc12 [Compound 6]
Result :: 4.79
